FYI, the data here is from the supplement of paper PMC12042874.

- protocol.description: amyloid nucleation score (Sup35N fusion, yeast selection) (log enrichment); library NNK2; higher = more nucleation; inactive = no reads after selection;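 also: zero at mode of non-aggregating sequences after 7 days selection at 30°C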
Label Fulfilled when amyloid nucleation score >= 0.3; otherwise Not fulfilled.

As a guide, the following entries are already answered.
1. IYNMVSCIIDLCYDKTRHSR = Fulfilled
2. PNACPFWCLGRV = Not fulfilled
3. SFNEWLSR = Not fulfilled

**Query** Assess whether reported amyloid nucleation score for ERFRIGTCSIRCSYILGLRR sits at 0.3 or higher.
**Result** Not fulfilled

**Query** Assess whether reported amyloid nucleation score for RIGMPMMSAYTMGLVTDRFT sits at 0.3 or higher.
**Result** Fulfilled

**Query** Assess whether reported amyloid nucleation score for CRVYMVDWGVVLRFDVRGSS sits at 0.3 or higher.
**Result** Not fulfilled

**Query** Assess whether reported amyloid nucleation score for RYNPCD sits at 0.3 or higher.
**Result** Fulfilled

**Query** Assess whether reported amyloid nucleation score for NCVWNWRHWFTVVNSF sits at 0.3 or higher.
**Result** Fulfilled

**Query** Assess whether reported amyloid nucleation score for NRHWRFG sits at 0.3 or higher.
**Result** Fulfilled

**Query** Assess whether reported amyloid nucleation score for TSFGWSGSCKLMYSMSTSGT sits at 0.3 or higher.
**Result** Fulfilled

**Query** Assess whether reported amyloid nucleation score for NGPVQIASGGRRVPLLWEVL sits at 0.3 or higher.
**Result** Not fulfilled

**Query** Assess whether reported amyloid nucleation score for IYMGISVCSICYV sits at 0.3 or higher.
**Result** Fulfilled

**Query** Assess whether reported amyloid nucleation score for IWSRLVVLRGRAGSDSSKNS sits at 0.3 or higher.
**Result** Not fulfilled

---

- protocol.description: amyloid nucleation score (Sup35N fusion, yeast selection) (log enrichment); library NNK3; higher = more nucleation; inactive = no reads after selection
value.type: amyloid nucleation score

Some entries whose results are on file:
1. ESFPFVSASDCSCSNR = inactive
2. NNDMCLYLTGRRFKG = inactive
3. HLKSVGVVYDWMSQWSLWCR = inactive
4. KSVKARYSDSSMW = inactive
5. GAFSEDFRESGLFLNVREGE = inactive

Per the record, PNHYSYQCALLKRSTEFRHA has amyloid nucleation score of inactive

Per the record, VIFNHVLACADYGVHKVVDL has amyloid nucleation score of inactive

Per the record, SRVLDGVWRAVLSCFQGSSI has amyloid nucleation score of 0.867

Per the record, HLKCLGNKACEGRVITHVAD has amyloid nucleation score of inactive

---

- protocol.description: amyloid nucleation score (Sup35N fusion, yeast selection) (log enrichment); library NNK3; higher = more nucleation; inactive = no reads after selection
value.type: amyloid nucleation score

Some entries whose results are on file:
1) VYLYIWQKVSGHHYGFQMDW = inactive
2) SGSLHACLALWTLTTYCVST = inactive
3) MLVAGPLGQE = inactive
4) KFSLCSVACFNK = 2.88

Per the record, RDFATTNGRDNIELHSQGNY has amyloid nucleation score of inactive

Per the record, GRWMMWFIEFYNGRQESWGN has amyloid nucleation score of inactive

---

- protocol.description: amyloid nucleation score (Sup35N fusion, yeast selection) (log enrichment); library NNK3; higher = more nucleation; inactive = no reads after selection
value.type: amyloid nucleation score

Some entries whose results are on file:
1) PVLSIYWTGPLKFNYIMMGL = inactive
2) VSRKRQLWEKCGTFVQRASM = inactive
3) IYNSAFIGFSRLKVCVYALF = 0.471
4) CMLCTQLHNNRRKKSKMCWS = inactive
5) RKFAGYQSSNASGSPVQGMS = inactive
6) VTQSNGVHKGAR = inactive
7) DLNIIRISAYLCLANCFPST = 2.37
8) SRQNIFLLRLKTMTGQSVNI = inactive

Per the record, LAYQGSGLIQQLAGLKHTTV has amyloid nucleation score of inactive

Per the record, RAFFDC has amyloid nucleation score of -0.47

Per the record, RVGRSR has amyloid nucleation score of -0.176
